# Protocol: Drug concentrations in plasma and lung tissues after 5 days of oral or inhalation dosing
# Type: in vivo, healthy male mice
# Assay Setup: male, mouse, lung tissue, inhaled; Group B: i.h., 15 mg/mL for 3 min, q.d., 5 days; two hours after last dose; read-out: Lung Tissue Concentrations
Experimental Endpoint: concentration at 2 h

[ask] Give the measured concentration at 2 h of CCC(C)n1ncn(-c2ccc(N3CCN(c4ccc(OCC5COC(Cn6cncn6)(c6ccc(Cl)cc6Cl)O5)cc4)CC3)cc2)c1=O (stereo not shown) [itraconazole] .
[reply] 590 ng/mL

---

# Protocol: Drug concentrations in plasma and lung tissues after 5 days of oral or inhalation dosing
# Format: in vivo, healthy male mice
# Assay Setup: male, mouse, lung tissue, po; Group A: p.o., 15 mg/kg, q.d., 5 days; two hours after last dose; read-out: Lung Tissue Concentrations
Experimental Endpoint: concentration at 2 h (ng/mL)
Reply with just the number (in ng/mL).

[ask] Give the measured concentration at 2 h of CCC(C)n1ncn(-c2ccc(N3CCN(c4ccc(OCC5COC(Cn6cncn6)(c6ccc(Cl)cc6Cl)O5)cc4)CC3)cc2)c1=O (stereo not shown) .
[reply] 172

Hello, the source for this data is patent US12569482B2, in case you need it.
